# System tested: Integrin alpha-4/beta-7 (Mus musculus) (UniProt Q00651+P26011)
# Assay explanation: Inhibition of integrin alpha4 beta7 receptor in mouse TK1 cells assessed as inhibition of Mn2+-activated cell adhesion to mouse MAdCAM-1-Fc at 50 uM after 1 hr by methylene blue staining analysis relative to biotin-r9YDRREY
# Format: cell-based
Residues, ends and D or L forms follow the SMILES beside them. *: point of attachment. X9 = CC(=O)N[C@@H]1[C@H](OCCCn2cc(C*)nn2)O[C@@H](CO)[C@@H](O)[C@H]1O; Biotin = O=C1N[C@H]2[C@H](CS[C@H]2CCCCC(=O)*)N1
Value type: inhibition (%)
Give the number; % is assumed, so skip it.

Prompt: Which inhibition value belongs to CC(=O)N[C@@H]1[C@H](OCCCn2cc(COc3ccc(C[C@H](NC(=O)[C@H](CCCNC(=N)N)NC(=O)[C@H](CCC(=O)O)NC(=O)[C@H](CCCNC(=N)N)NC(=O)[C@H](CCCNC(=N)N)NC(=O)[C@H](CCCNC(=N)N)NC(=O)[C@H](CCCNC(=N)N)NC(=O)[C@H](CCCNC(=N)N)NC(=O)[C@H](CCCNC(=N)N)NC(=O)[C@H](CCCNC(=N)N)NC(=O)[C@H](CCCNC(=N)N)NC(=O)CCCC[C@@H]4SC[C@@H]5NC(=O)N[C@@H]54)C(=O)O)cc3)nn2)O[C@@H](CO)[C@@H](O)[C@H]1O (Biotin-RRRRRRRRERY(X9)-OH) ?
Completion: 41.5
